Hey, just so you know, these numbers are from paper PMC4336329.

SYSTEM NAME: human ether-à-go-go-related gene (hERG) potassium channel (human, UniProt Q12809);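 note: peak tail current of the secondary pulse compared with the same well before compound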
Sequence (Q12809 whole entry, looked up): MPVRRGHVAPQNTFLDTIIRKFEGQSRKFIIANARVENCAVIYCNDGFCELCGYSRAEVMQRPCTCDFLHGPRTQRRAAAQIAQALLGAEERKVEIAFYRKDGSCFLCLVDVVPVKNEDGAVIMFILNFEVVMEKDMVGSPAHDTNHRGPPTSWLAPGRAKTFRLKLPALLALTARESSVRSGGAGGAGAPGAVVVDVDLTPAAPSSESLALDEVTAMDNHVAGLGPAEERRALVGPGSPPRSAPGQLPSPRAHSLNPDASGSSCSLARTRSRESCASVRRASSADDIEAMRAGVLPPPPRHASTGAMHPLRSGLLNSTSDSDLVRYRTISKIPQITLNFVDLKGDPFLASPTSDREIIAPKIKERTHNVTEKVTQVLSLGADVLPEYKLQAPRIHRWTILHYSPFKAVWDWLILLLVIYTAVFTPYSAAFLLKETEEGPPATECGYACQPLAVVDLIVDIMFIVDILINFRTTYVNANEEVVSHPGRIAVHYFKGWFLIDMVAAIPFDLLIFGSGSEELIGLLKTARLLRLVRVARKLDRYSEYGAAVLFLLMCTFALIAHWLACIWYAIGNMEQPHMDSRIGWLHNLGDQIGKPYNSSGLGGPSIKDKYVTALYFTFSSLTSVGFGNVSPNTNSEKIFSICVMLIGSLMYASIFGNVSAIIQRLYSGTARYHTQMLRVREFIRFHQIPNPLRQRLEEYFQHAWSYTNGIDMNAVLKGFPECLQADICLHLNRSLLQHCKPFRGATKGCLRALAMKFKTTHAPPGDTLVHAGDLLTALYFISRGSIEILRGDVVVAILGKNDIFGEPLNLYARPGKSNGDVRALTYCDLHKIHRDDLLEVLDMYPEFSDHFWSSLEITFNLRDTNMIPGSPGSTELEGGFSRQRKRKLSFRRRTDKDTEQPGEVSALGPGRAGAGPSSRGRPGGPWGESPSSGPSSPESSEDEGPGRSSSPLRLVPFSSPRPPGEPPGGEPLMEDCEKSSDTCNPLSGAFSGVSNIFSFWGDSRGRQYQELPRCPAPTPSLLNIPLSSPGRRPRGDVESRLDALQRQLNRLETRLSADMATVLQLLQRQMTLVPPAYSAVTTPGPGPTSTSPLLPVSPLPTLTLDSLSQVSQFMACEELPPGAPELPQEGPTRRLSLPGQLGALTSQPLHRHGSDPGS
PROTOCOL DETAILS: primary screen, population patch clamp on CHO cells stably expressing hERG; higher = less effect of the substance
Out of some 310,000 compounds screened, about 14,000 (4.5%) showed an effect of 50% or more. The effect is printed as a negative number. The sample holds strong results, similar compounds and a random draw of the others, so the mix is not that of the screen.
Overview of recorded hERG current change (%, negative = inhibition) at 10uM for various compounds
Quick reminder: number only, in %, skip the unit.

Consider the reported hERG current change (%, negative = inhibition) at 10uM for these compounds:
compound=Cc1ccccc1NC(=O)Cn1nc(-c2ccc(Cl)s2)ccc1=O numeric_value=13.6
compound=O=C(Cn1nnc(-c2ccccc2)n1)Nc1cccc(S(=O)(=O)N2CCOCC2)c1 numeric_value=-56.2
compound=O=C(Cn1nnc(-c2ccccc2)n1)Nc1cccc(S(=O)(=O)N2CCCC2)c1 numeric_value=-2.26
compound="CC1=C(C(=O)OCc2ccccc2)C(c2ccc(C#N)cc2)NC(=O)N1CCCC(=O)O (stereo not drawn)" numeric_value=10.9
compound=COc1cc(C#N)ccc1OCC(=O)Nc1cccc(S(=O)(=O)N2CCCC2)c1 numeric_value=-44.4

Query string: Which value of hERG current change (%, negative = inhibition) at 10uM has been reported for `CN(C)S(=O)(=O)c1cccc(NC(=O)c2cccc(S(=O)(=O)N3CCCCC3)c2)c1` in the records?
Result string: -27.9

Query string: Which value of hERG current change (%, negative = inhibition) at 10uM has been reported for `NC(=O)c1ccc(-c2nnn(CC(=O)Nc3cccc(S(=O)(=O)N4CCCC4)c3)n2)cc1` in the records?
Result string: 4.54

Query string: Which value of hERG current change (%, negative = inhibition) at 10uM has been reported for `CC(=O)c1cnc2cc(-c3ccc(C)cc3)nn2c1C` in the records?
Result string: -4.26

Query string: Which value of hERG current change (%, negative = inhibition) at 10uM has been reported for Cc1c(NC(=O)C(C)n2cc([N+](=O)[O-])cn2)c(=O)n(-c2ccccc2)n1C (stereo not drawn) in the records?
Result string: 19.4
